Reference source: PubChem BioAssay (EPA / NIEHS)

Read-out: ABC Transporter (ABCB1), ABCB1 (gene 5243)
Experiment: LTEA_HepaRG_ABCB1: Life Technologies and Expression Analysis (LTEA) Assay for ABC Transporter (ABCB1) using HepaRG (AID 2283460)
Details: mRNA level, 48 h; actives raise or lower the signal
Calls of active or inactive are those of the source. The calls were made as follows: active = hit-call score of the fitted dose curve at least 0.9, where 1 is the maximum; inactive = score below 0.9.
PROPERTY_MEASURED: AC50

Task: So what's the measured AC50 for this one? CCC(=O)C(CC(C)N(C)C)(c1ccccc1)c1ccccc1 (stereo not given)
Result: inactive

Task: So what's the measured AC50 for this one? CC(C)(C)c1cc(O)ccc1O
Result: inactive

Task: So what's the measured AC50 for this one? C=C(C)C(=O)[O][Sn]([CH2]CCC)([CH2]CCC)[CH2]CCC
Result: 3.08 µM (active)

Task: So what's the measured AC50 for this one? CC(C)(OO)c1ccccc1
Result: inactive

Task: So what's the measured AC50 for this one? Oc1cccc2cccnc12
Result: inactive

Here are 5 molecules. What values of AC50 were reported for them?
1. O=C(O)C(F)(F)C(F)(F)C(F)(F)C(F)(F)C(F)(F)C(F)(F)F
2. O=C1C2(Cl)C3(Cl)C4(Cl)C(Cl)(Cl)C5(Cl)C3(Cl)C1(Cl)C5(Cl)C24Cl (stereo not given)
3. C[C@]12CCC(=O)C[C@@H]1CC[C@@H]1[C@@H]2CC[C@]2(C)[C@@H](O)CC[C@@H]12
4. O=c1[nH]c(=O)[nH]c(=O)[nH]1
5. O=C(O)C(Cl)(Cl)Cl

Result:
1: 0.101 µM (active); 2: 91.8 µM (active); 3: inactive; 4: inactive; 5: inactive
